Reference source for all entries: patent US20260176284A1

- TEST_SUMMARY: Mouse pharmacokinetics (IV and PO)
- Type: in vivo
- STATED_CONDITIONS: 10 mg/kg, male CD-1 mice, PO (gavage), 1 mg/mL at 10 mL/kg, plasma
Reported AUC(0-t) values follow for various molecules

MOLECULE: [2H]C([2H])([2H])N1CC/C(=C\F)[C@](C)(COc2nc(N3C[C@H]4CC[C@@H](C3)N4)c3cnc(-c4cc(O)cc5ccc(F)c(C#C)c45)c(F)c3n2)C1 [Example 306]
VALUE_UNIT: ng·h/mL
AUC(0-t): 759

MOLECULE: [2H]C([2H])([2H])N1CC/C(=C\F)[C@](C)(C([2H])([2H])Oc2nc(N3C[C@H]4CC[C@@H](C3)N4)c3cnc(-c4cc(O)cc5ccc(F)c(C#C)c45)c(F)c3n2)C1 [Example 304]
VALUE_UNIT: ng·h/mL
AUC(0-t): 1420

MOLECULE: C#Cc1c(F)ccc2cc(O)cc(-c3c(F)cc4c(N5CC6CCC(C5)N6)nc(OC[C@]5(C)CN(C)CC[C@@H]5C(F)F)nc4c3F)c12 (atropisomer, axis not shown; (Ra)) [Example 46-3]
VALUE_UNIT: ng·h/mL
AUC(0-t): 384

MOLECULE: C#Cc1c(F)ccc2cc(O)cc(-c3ncc4c(N5C[C@H]6CC[C@@H](C5)N6)nc(OC[C@]5(C)CN(C)CC/C5=C\F)nc4c3F)c12 [Example 103]
VALUE_UNIT: ng·h/mL
AUC(0-t): 653

###

- System: KRAS-G12D mutated human colon carcinoma cells GP2d
- TEST_SUMMARY: Antitumor effect, subcutaneous xenograft of KRAS-G12D mutated human colon carcinoma cells GP2d
- Assay type: in vivo
- STATED_CONDITIONS: BALB/c nude mice, 10 mg/kg, gavage, twice a day
Reported Tumor volume (mm3) (Day 21) values follow for various compounds

COMPOUND: C#Cc1c(F)ccc2cc(O)cc(-c3nc(C#C)c4c(N5CC6CCC(C5)N6)nc(OC[C@]5(C)CN(C)CC/C5=C\F)nc4c3F)c12 [Example 332]
Tumor volume (mm3) (Day 21): 419 mm3
//
COMPOUND: [2H]C([2H])([2H])N1CC[C@H](C(F)F)[C@](C)(C([2H])([2H])Oc2nc(N3CC4CCC(C3)N4)c3cc(Cl)c(-c4cccc5sc(N)c(C#N)c45)c(F)c3n2)C1 (single isomer, unassigned) [Example 315-1]
Tumor volume (mm3) (Day 21): 325 mm3
//
COMPOUND: CN1CC[C@H](C(F)F)[C@](C)(COc2nc(N3CC4CCC(C3)N4)c3cc(Cl)c(-c4c(F)ccc5sc(N)c(C#N)c45)c(F)c3n2)C1 (single isomer, unassigned) [Example 325-1]
Tumor volume (mm3) (Day 21): 228 mm3

###

- TEST_SUMMARY: Mouse pharmacokinetics (IV and PO)
- Format: in vivo
- STATED_CONDITIONS: 10 mg/kg, male CD-1 mice, PO (gavage), 1 mg/mL at 10 mL/kg, plasma
Reported AUC(0-inf) values follow for various compounds

COMPOUND: [2H]C([2H])([2H])N1CC/C(=C\F)[C@](C)(C([2H])([2H])Oc2nc(N3C[C@H]4CC[C@@H](C3)N4)c3cnc(-c4cc(O)cc5ccc(F)c(C#C)c45)c(F)c3n2)C1 [Example 304]
AUC(0-inf) [ng·h/mL]: 1500

COMPOUND: C#Cc1c(F)ccc2cc(O)cc(-c3ncc4c(N5C[C@H]6CC[C@@H](C5)N6)nc(OC[C@]5(C)CN(C)CC/C5=C\F)nc4c3F)c12 [Example 103]
AUC(0-inf) [ng·h/mL]: 704

COMPOUND: C#Cc1c(F)ccc2cc(O)cc(-c3c(F)cc4c(N5CC6CCC(C5)N6)nc(OC[C@]5(C)CN(C)CC[C@@H]5C(F)F)nc4c3F)c12 (atropisomer, axis not shown; (Ra)) [Example 46-3]
AUC(0-inf) [ng·h/mL]: 414

COMPOUND: [2H]C([2H])([2H])N1CC/C(=C\F)[C@](C)(COc2nc(N3C[C@H]4CC[C@@H](C3)N4)c3cnc(-c4cc(O)cc5ccc(F)c(C#C)c45)c(F)c3n2)C1 [Example 306]
AUC(0-inf) [ng·h/mL]: 801

###

- System: KRAS-G12D mutated human colon carcinoma cells GP2d
- TEST_SUMMARY: Antitumor effect, subcutaneous xenograft of KRAS-G12D mutated human colon carcinoma cells GP2d
- Type: in vivo
- STATED_CONDITIONS: BALB/c nude mice, 10 mg/kg, gavage, twice a day

MOLECULE: [2H]C([2H])([2H])N1CC[C@H](C(F)F)[C@](C)(C([2H])([2H])Oc2nc(N3CC4CCC(C3)N4)c3cc(C(F)(F)F)c(-c4cccc5sc(N)c(C#N)c45)c(F)c3n2)C1 (single isomer, unassigned)
Tumor volume (mm3) (Day 21): 70

MOLECULE: CN1CC/C(=C\F)[C@](C)(COc2nc(N3CC4CCC(C3)N4)c3cc(Cl)c(-c4cccc5sc(N)c(C#N)c45)c(F)c3n2)C1 (single isomer, unassigned)
Tumor volume (mm3) (Day 21): 256

###

- TEST_SUMMARY: Mouse pharmacokinetics (IV and PO)
- Type: in vivo
- STATED_CONDITIONS: 10 mg/kg, male CD-1 mice, PO (gavage), 1 mg/mL at 10 mL/kg, plasma
Reported half-life values follow for various compounds
MEASUREMENT_NAME: half-life (h)

COMPOUND: C#Cc1c(F)ccc2cc(O)cc(-c3c(F)cc4c(N5CC6CCC(C5)N6)nc(OC[C@]5(C)CN(C)CC[C@@H]5C(F)F)nc4c3F)c12 (atropisomer, axis not shown; (Ra)) [Example 46-3]
MEASUREMENT_NAME: half-life
VALUE_UNIT: h
RECORDED_VALUE: 10.8

COMPOUND: [2H]C([2H])([2H])N1CC/C(=C\F)[C@](C)(C([2H])([2H])Oc2nc(N3C[C@H]4CC[C@@H](C3)N4)c3cnc(-c4cc(O)cc5ccc(F)c(C#C)c45)c(F)c3n2)C1 [Example 304]
MEASUREMENT_NAME: half-life
VALUE_UNIT: h
RECORDED_VALUE: 8.74

COMPOUND: [2H]C([2H])([2H])N1CC/C(=C\F)[C@](C)(COc2nc(N3C[C@H]4CC[C@@H](C3)N4)c3cnc(-c4cc(O)cc5ccc(F)c(C#C)c45)c(F)c3n2)C1 [Example 306]
MEASUREMENT_NAME: half-life
VALUE_UNIT: h
RECORDED_VALUE: 7.17

COMPOUND: C#Cc1c(F)ccc2cc(O)cc(-c3ncc4c(N5C[C@H]6CC[C@@H](C5)N6)nc(OC[C@]5(C)CN(C)CC/C5=C\F)nc4c3F)c12 [Example 103]
MEASUREMENT_NAME: half-life
VALUE_UNIT: h
RECORDED_VALUE: 8.15
